assay explanation: chemical genetic growth profiling, strain panel (AID 1159580);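 also: tested at 20 µM; growth read once vehicle control cultures reached saturation at 30 °C; 1 = growth at the plate median or of vehicle wells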
assay conditions: S. cerevisiae deletion strains, growth OD, locus YER016W, strain bim1, stronger effect = lower value
In all, about 5,500 compounds went through this assay and about 2,000 (36%) were called active. Not shown: some 18% with an inconclusive outcome. This is one part of the list.
Provide the reported normalized growth of each item.
// no unit string in output, number only

// normalized growth value for COc1ccc2nc(S(=O)Cc3ncc(C)c(OC)c3C)[nH]c2c1 (centres undefined) : 1.02

Note to self: normalized growth recorded for COC[C@]12CN(C=O)C3[C@@H]4[C@H](OC)C1[C@]3(C1CC3(O)C(OC)C(O)C4(OC(C)=O)C1C3OC(=O)c1ccccc1)[C@@H](OC)C[C@H]2O (some centres undefined) was 1.03

The recorded normalized growth for entry COc1ccnc(CS(=O)c2nc3ccc(OC(F)F)cc3[nH]2)c1OC (centres undefined) equals 1.04

Briefly, normalized growth measured for C[C@@H]1CC2C3CCC4=CC(=O)C=C[C@]4(C)[C@@]3(F)[C@@H](O)C[C@]2(C)[C@@]1(O)C(=O)CO (some centres undefined) : 1.03

Kindly note the recorded normalized growth for COC(=O)[C@H](c1ccccc1Cl)N1CCc2sccc2C1 , which is 0.98

Given item O=c1[nH]c(=O)n(C2C[C@H](O)[C@@H](CO)O2)cc1C(F)(F)F (some centres undefined) , the value recorded as its normalized growth is 0.978

Form field normalized growth, entry Nc1nc(F)nc2c1ncn2[C@@H]1O[C@H](COP(=O)(O)O)[C@@H](O)[C@@H]1O : 0.993

Just so you know, measured normalized growth for N[C@@H](C(=O)O)[C@@H](O)[C@H](O)[C@H](O)CO came out at 1.02

normalized growth measured on COC1C=CC23c4cc5c(cc4CN(CC2O)[C@@H]3C1)OCO5 (some centres undefined) = 0.971

###

assay explanation: chemical genetic growth profiling, strain panel (AID 1159580)
assay conditions: S. cerevisiae deletion strains, growth OD, locus YBR229C, strain ROT2, stronger effect = lower value
The whole screen tested about 5,500 compounds, of which about 2,000 (36%) were called active. Inconclusive results (about 18%) are left out. Some of the results follow.
property: normalized growth
The answer should be written as a number, with no unit following it.

Lab book: normalized growth of CC(=O)O[C@H]1C[C@@H](OC(C)=O)C(C)(C)C2C[C@@H](OC(C)=O)[C@]3(C)C(CC[C@@]4(C)[C@H](c5ccoc5)OC(=O)[C@H]5O[C@]543)[C@]21C (stereo partly drawn) noted as 0.992

Record CC(=O)O[C@H]1CC[C@@]2(C)C(C[C@@H](OC(C)=O)[C@]3(C)C2CC[C@@]2(C)[C@H](c4ccoc4)OC(=O)[C@H]4O[C@]423)C1(C)C (stereo partly drawn) , field normalized growth: 1

The reported value for CC(=O)O[C@@H]1CC2C(C)(C)[C@@H](O)CC[C@]2(C)C2CC[C@@]3(C)[C@H](c4ccoc4)OC(=O)[C@H]4O[C@]43[C@@]21C (stereo partly drawn) in terms of normalized growth is 1.01

###

assay explanation: chemical genetic growth profiling, strain panel (AID 1159580);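 also: tested at 20 µM; growth read once vehicle control cultures reached saturation at 30 °C; 1 = growth at the plate median or of vehicle wells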
assay conditions: S. cerevisiae deletion strains, growth OD, locus YNL067W, strain RPL9B, stronger effect = lower value
Hit rate of the full screen: of about 5,500 compounds, about 2,000 (36%) were called active. Not shown: some 18% with an inconclusive outcome. The list shows a part of the results.
normalized growth under 1 gets class 1, anything at or over 1 gets class 0.

is_below(normalized growth, 1) for CCCNC(=O)NS(=O)(=O)c1ccc(Cl)cc1 ?
class 0

Field: below-cutoff. Rule: recorded normalized growth strictly less than 1. Subject: CC(=O)NCCc1c[nH]c2ccc(O)cc12
class 1

Strictly below 1: is that where normalized growth of COc1ccc2c(c1)OCC(Cc1ccc(OC)c(OC)c1)C2=O (centres undefined) sits?
class 1

Quick check: normalized growth of C[C@]12CCC3c4ccc(OC(=O)CCC(=O)O)cc4CCC3C1CCC2=O (some centres undefined) under 1?
class 1

Does this compound meet the criterion normalized growth < 1? CC(C)/C(O)=C1/C(=O)O[C@@H](c2ccoc2)[C@]2(C)C(O)[C@@H](O)[C@@]34OC5(C)OC67CC(C)(C(O)[C@]6(O)[C@@H](O)[C@]3(O5)C12)[C@H](CC(=O)O)[C@]74C (some centres undefined)
class 0

normalized growth under 1? Item: COC[C@]12CN(C=O)C3[C@@H]4[C@H](OC)C1[C@]3(C1CC3(O)C(OC)C(O)C4(OC(C)=O)C1C3OC(=O)c1ccccc1)[C@@H](OC)C[C@H]2O (some centres undefined)
class 0

Threshold test, normalized growth < 1: COC1C=CC23c4cc5c(cc4CN(CC2O)[C@@H]3C1)OCO5 (some centres undefined)
class 0

Please check: normalized growth for Cc1cc(/C=C/c2ccc3cc(N(C)C)ccc3[n+]2C)c(C)n1-c1ccccc1 , strictly under 1 or not?
class 1

State whether 1 exceeds normalized growth recorded for CC12CCC3C(=CCc4cc(O)ccc43)C1CCC2=O (centres undefined) .
class 1

A record lists CC(=O)Oc1ccc2c(c1)CCC1C2CC[C@]2(C)C(=O)CCC12 (some centres undefined) . Is its normalized growth below 1?
class 1

###

assay explanation: chemical genetic growth profiling, strain panel (AID 1159580);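 also: tested at 20 µM; growth read once vehicle control cultures reached saturation at 30 °C; 1 = growth at the plate median or of vehicle wells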
assay conditions: S. cerevisiae deletion strains, growth OD, locus YGR135W, strain pre9, stronger effect = lower value
In all, about 5,500 compounds went through this assay and about 2,000 (36%) were called active. Another 18% or so got no clear call; they are omitted. Some of the results follow.
Please provide measured normalized growth for the entries that follow.
Give your answer as a number; write no unit.

// recorded normalized growth for CC(=O)Oc1ccc2c(c1)CCC1C2CC[C@]2(C)C(=O)CCC12 (stereo partly drawn) : 1.01

The measured normalized growth associated with COc1cc(OC)c2c(=O)cc(-c3ccccc3)oc2c1 reads 0.819

Item: O=C(O)COc1ccc(Cl)cc1Cl | normalized growth: 1.02

get_value(item= Fc1ccc([C@@H]2CCNC[C@H]2COc2ccc3c(c2)OCO3)cc1 , readout=normalized growth) returns 0.987

The reported value for NC1(C(=O)O)CC1 in terms of normalized growth is 1.03

The reported normalized growth of the compound NC1(C(=O)O)CCC1 was 0.915

Looking up Cc1cccc(C)c1NC(=O)C1CCCCN1C (stereo not drawn) , I found its normalized growth recorded as 1

Given item Clc1ccc(C(c2ccccc2Cl)C(Cl)Cl)cc1 (stereo not drawn) , the value recorded as its normalized growth is 0.968

response.value for NC(=O)NC1NC(=O)NC1=O (stereo not drawn) (field: normalized growth) = 0.998

Just so you know, measured normalized growth for CC(=O)NCCc1c[nH]c2ccc(O)cc12 came out at 1.06

normalized growth for O=C1CCCCC/C=C/CCCCCCCCO1 is 0.956

Kindly note the recorded normalized growth for C[C@]12CCC3c4ccc(OC(=O)CCC(=O)O)cc4CCC3C1CCC2=O (stereo partly drawn) , which is 0.936

Record summary for Clc1ccc(COC(Cn2ccnc2)c2ccc(Cl)cc2Cl)c(Cl)c1 (stereo not drawn) : reported normalized growth = 0.0676

###

assay explanation: chemical genetic growth profiling, strain panel (AID 1159580);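 also: tested at 20 µM; growth read once vehicle control cultures reached saturation at 30 °C; 1 = growth at the plate median or of vehicle wells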
assay conditions: S. cerevisiae deletion strains, growth OD, locus YNL161W, strain CBK1
Hit rate of the full screen: of about 5,500 compounds, about 2,000 (36%) were called active. Roughly 18% stayed inconclusive and do not appear here. No stated cut-off is given here; in the data, active means normalized growth mostly below about 0.91 (no sharp cut-off); inconclusive means no clear call, values can overlap the other calls; inactive means mostly above about 0.92. Some of the results follow.
Entry note: the call must match one of active, inactive

Name the outcome recorded for Cc1c(S(=O)(=O)Nc2cccc([N+](=O)[O-])c2)sc2ccc(Cl)cc12 in the assay.
inactive

Test call for this compound, please: Nc1ccccc1C(=O)Nc1cc(C(F)(F)F)cc(C(F)(F)F)c1
inactive

GET /call?item= Clc1ccccc1-c1csc(-c2ccncc2)n1 returns the recorded outcome of this test.
inactive

So what was the verdict on O=S(=O)(Nc1cc(Cl)c(Cl)cc1Cl)c1cc(C(F)(F)F)cc(C(F)(F)F)c1 in this test?
inactive

Could you please tell me the result logged for COc1ccc2c(c1)CCc1sc(NC(=O)c3ccco3)nc1-2 in this assay?
inactive

Check the results log: what was the call for Cc1noc(C)c1S(=O)(=O)Nc1csc(C(F)(F)F)c1-c1ccccc1 ?
inactive

# fetch the recorded call for CCOC(=O)c1sc(S(C)=NC(=O)Nc2ccc(Cl)cc2)c2c1CCC=C2 (stereo unspecified) here
inactive

Assay result, entry O=C(Nc1cc(Cl)ccc1O)c1ccccc1CSc1ccc(Cl)cc1 — outcome?
inactive

Hi team, can someone confirm the assay call for C/C(=N/NC(=S)NCC(C)(C)C)c1cc(F)cc(Cl)c1O ?
inactive

Recorded call for CC(C)(C)C1=C(C#N)C(c2c(Cl)cccc2Cl)C(C#N)=C(N)O1 (stereo unspecified) ?
inactive

Dear colleague, could you share the recorded outcome for Cc1ccc(NC(=S)C(C#N)C(=O)N2CCOCC2)c(C)c1 (stereo unspecified) when you have a moment?
inactive

For CN(C)c1ccc(/C=C/c2ccc3ccccc3[n+]2C)cc1 , what call appears in the results of this test?
inactive

Called result for FC(F)(F)c1cc(NC(=S)SCCSC(=S)Nc2cc(C(F)(F)F)cc(C(F)(F)F)c2)cc(C(F)(F)F)c1
inactive

Hi team, can someone confirm the assay call for COc1ccc(-c2csc(-c3cccnc3)n2)cc1 ?
inactive

Hi, do you know how Clc1ccc(Oc2ccnc3cc(Cl)ccc23)cc1 came out in this test?
active

Would you mind telling me which call this test gave Clc1ccc(-c2cnc(Nc3cc(Cl)cc(Cl)c3)s2)cc1 ?
active

# fetch the recorded call for CC1CCC(C(C)C)C(N(Cc2ccccc2)C(=O)c2ccccc2)C1 (stereo unspecified) here
inactive

Per the assay record, what outcome was assigned to Clc1cccc(Nc2ncc(-c3ccc4c(c3)OCCCO4)s2)c1 ?
inactive

Hi, do you know how N#Cc1cccc(CSc2nc3ccc(C(F)(F)F)cc3[nH]2)c1 came out in this test?
inactive

Name the outcome recorded for O=[N+]([O-])c1ccsc1Oc1cccc(C(F)(F)F)c1 in the assay.
inactive

Please share the test call associated with O=S(=O)(NCc1ccc(C(F)(F)F)cc1)c1cc(Br)c(Br)s1 .
inactive

Call for entry CC1=CC(=O)N(c2ccc(F)c(Cl)c2)C1=O :
inactive

What did this assay record as the result for Cc1cccc(N=NC(C(=O)C(F)(F)F)=C(O)c2cccs2)c1 ?
inactive

Tell me the assay call for O=S(=O)(Nc1csc(C(F)(F)F)c1-c1ccccc1)c1cc(Br)c(Br)s1 please.
inactive

Give the logged outcome of this assay for the following compound: Cc1ccc(-c2nc(NS(=O)(=O)c3cccc4nonc34)sc2C)cc1Cl
inactive

What classification did N#CC(C#N)=Cc1c(-c2ccccc2Cl)[nH]c2ccccc12 end up with in this test?
inactive
